experimentalTarget: T1, recombinant MS4A4A soluble polypeptide JS5
T1 construct: also called JS5.His
methodNotes: ELISA, 0.4 ug/ml antibody
Record form. Attribute: OD450. Fill in for each entry.
Numbers only.

# map each binder to its OD450
1. anti-MS4A4A antibody 4A-332 (antibody, human IgG1, V domains shown, humanized 4A-21; human IgG1/kappa) VH: QVQLVQSGSELKKPGASVKVSCKASGYIFTSYGLSWVRQAPGQGLEWMGWINTYSGVPTYAQGFTGRFVFSLDTSVSTAYLQISSLKAEDTAVYYCARSLVDYWGQGTLVTVSS VL: DVVMTQSPLSLPVTLGQPASISCKSSQSLLYSDGKTYLSWFQQRPGQSPRRLIYLVSKLDSGVPDRFSGSGSGTDFTLKISRVEAEDVGVYYCWQGIDFHQTFGGGTKVEIK
2. anti-MS4A4A antibody 4A-362 (antibody, V domains shown, full human IgG) VH: QVQLVQSGSELKKPGASVKVSCKASGYIFTSYGLSWVRQAPGQGLEWMGWINTYSGVPTYAQGFTGRFVFSLDTSVSTAYLQISSLKAEDTAVYYCARTLADYWGQGTLVTVSS VL: DVVMTQSPLSLPVTLGQPASISCKSSQSLLYSDGKTYLSWFQQRPGQSPRRLIYLVSRLDSGVPDRFSGSGSGTDFTLKISRVEAEDVGVYYCWQGIDFHQTFGGGTKVEIK
3. anti-MS4A4A antibody 4A-373 (antibody, V domains shown, full human IgG) VH: QVQLVQSGSELKKPGASVKVSCKASGYIFTSYGLSWVRQAPGQGLEWMGWINTYSGVPTYAQGFTGRFVFSLDTSVSTAYLQISSLKAEDTAVYYCARTLVDYWGQGTLVTVSS VL: DVVMTQSPLSLPVTLGQPASISCKSSRSLLYSDGKTYLSWFQQRPGQSPRRLIYLVSKLDSGVPDRFSGSGSGTDFTLKISRVEAEDVGVYYCWQGIDFHQTFGGGTKVEIK
4. anti-MS4A4A antibody 4A-360 (antibody, V domains shown, full human IgG) VH: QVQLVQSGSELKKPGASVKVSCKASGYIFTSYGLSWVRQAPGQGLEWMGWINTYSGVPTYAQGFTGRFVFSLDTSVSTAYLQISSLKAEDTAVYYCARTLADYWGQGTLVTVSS VL: DVVMTQSPLSLPVTLGQPASISCKSGQSLLYSDGKTYLSWFQQRPGQSPRRLIYLVSRLDSGVPDRFSGSGSGTDFTLKISRVEAEDVGVYYCWQGIDFHQTFGGGTKVEIK
5. anti-MS4A4A antibody 4A-350 (antibody, V domains shown, full human IgG) VH: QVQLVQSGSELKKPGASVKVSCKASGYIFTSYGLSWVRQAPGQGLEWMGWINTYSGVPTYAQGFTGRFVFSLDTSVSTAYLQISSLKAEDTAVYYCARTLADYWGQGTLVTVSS VL: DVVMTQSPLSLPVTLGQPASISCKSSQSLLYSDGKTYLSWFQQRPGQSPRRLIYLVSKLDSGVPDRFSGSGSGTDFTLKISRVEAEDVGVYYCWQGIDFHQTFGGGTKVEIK

0.821
0.908
0.907
0.797
0.939
